biological target: T1, hu PD1-ECD (human, UniProt Q15116 25-170); test: SPR (Biacore T200), antibody captured by anti-human IgG, hu PD1-ECD as analyte, 25 °C, 1:1 Langmuir fit
T1 construct: SPR analyte; also called human PD1-ECD
T1 sequence (Q15116 25-170 limits assumed): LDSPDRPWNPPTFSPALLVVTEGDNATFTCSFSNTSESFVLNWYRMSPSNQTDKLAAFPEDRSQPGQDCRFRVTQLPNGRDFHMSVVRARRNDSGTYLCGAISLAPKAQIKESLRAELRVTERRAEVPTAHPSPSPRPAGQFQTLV
REPORTED_PROPERTY: koff (s⁻¹)
Answer with a number only, understood to be in s⁻¹.

Sample PD1-0103-0312 (antibody, human IgG1, V domains shown, Humanized; also called PD1-103-0312; PD-0103-0312) VH: EVQLLESGGGLVQPGGSLRLSCAASGFSFSSYTMSWVRQAPGKGLEWVATISGGGRDIYYPDSVKGRFTISRDNSKNTLYLQMNSLRAEDTAVYYCVLLTGRVYFALDSWGQGTLVTVSS VL: DIVMTQSPDSLAVSLGERATINCKASESVDTSDNSFIHWYQQKPGQSPKLLIYRSSTLESGVPDRFSGSGSGTDFTLTISSLQAEDVAVYYCQQNYDVPWTFGQGTKVEIK ; koff observed: 0.000345
